Where do the numbers come from? From ChEMBL document CHEMBL5321201.

Biological target: Phosphatidylinositol 3-kinase catalytic subunit type 3 (Homo sapiens)
Sequence (Q8NEB9 whole entry): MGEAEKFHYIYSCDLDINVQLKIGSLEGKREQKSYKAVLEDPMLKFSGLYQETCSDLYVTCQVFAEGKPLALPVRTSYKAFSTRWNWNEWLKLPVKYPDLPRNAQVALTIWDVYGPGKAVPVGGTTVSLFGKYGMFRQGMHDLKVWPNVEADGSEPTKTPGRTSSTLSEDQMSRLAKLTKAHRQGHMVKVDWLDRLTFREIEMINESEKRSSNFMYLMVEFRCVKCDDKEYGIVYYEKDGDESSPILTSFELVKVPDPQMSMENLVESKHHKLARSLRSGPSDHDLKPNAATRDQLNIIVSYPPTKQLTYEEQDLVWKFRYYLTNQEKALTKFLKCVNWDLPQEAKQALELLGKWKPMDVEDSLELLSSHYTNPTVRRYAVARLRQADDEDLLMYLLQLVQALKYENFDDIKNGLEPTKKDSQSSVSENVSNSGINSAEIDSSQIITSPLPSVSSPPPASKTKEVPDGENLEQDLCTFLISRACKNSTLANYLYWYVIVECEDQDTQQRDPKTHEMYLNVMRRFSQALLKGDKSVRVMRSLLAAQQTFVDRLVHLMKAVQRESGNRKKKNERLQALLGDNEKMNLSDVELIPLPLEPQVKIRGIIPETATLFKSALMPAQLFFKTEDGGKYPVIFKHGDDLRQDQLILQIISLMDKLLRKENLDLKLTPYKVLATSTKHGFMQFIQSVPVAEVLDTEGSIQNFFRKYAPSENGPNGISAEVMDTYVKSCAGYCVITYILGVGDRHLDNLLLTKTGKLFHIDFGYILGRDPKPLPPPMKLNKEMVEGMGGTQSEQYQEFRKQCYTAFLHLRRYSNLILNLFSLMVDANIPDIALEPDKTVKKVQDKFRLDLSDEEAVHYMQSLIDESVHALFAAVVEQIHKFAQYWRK
Experiment: Binding affinity to DNA-tagged VPS34 (unknown origin) assessed as dissociation constant by quantitative PCR analysis
ENDPOINT: Kd (µM)
Answers are plain numbers, in µM.

Could you share what Kd was measured for Nc1cc(C(F)F)c(-c2nc(C3CCOCC3)nc(N3C4CCC3COC4)n2)cn1 , tested on Phosphatidylinositol 3-kinase catalytic subunit type 3 (Homo sapiens)? 6.1

====

Hi there, I'd appreciate the recorded hepatocyte CLint at 5 µM for every entry that follows.
Test: Metabolic stability in Beagle dog hepatocytes assessed as intrinsic clearance measured per million cells at 5 microM incubated upto 180 mins by LC/MS analysis
Assay type: ADME, cell-based, Canis lupus familiaris, Hepatocyte
Details: read-out: CLH
Answers are plain numbers, in µL/min/1e6 cells.

>  <STRUCTURE>
Nc1cc(C(F)F)c(-c2nc(C3CCOCC3)nc(N3C4CCC3COC4)n2)cn1

>  <hepatocyte CLint at 5 µM, µL/min/1e6 cells>
0.42

$$$$

Look up hepatocyte CLint at 5 µM: CCOc1ccc2ccc(=O)oc2c1 45
